Biological target: UniProt:Q96RR4
Sequence (Q96RR4 whole entry, looked up): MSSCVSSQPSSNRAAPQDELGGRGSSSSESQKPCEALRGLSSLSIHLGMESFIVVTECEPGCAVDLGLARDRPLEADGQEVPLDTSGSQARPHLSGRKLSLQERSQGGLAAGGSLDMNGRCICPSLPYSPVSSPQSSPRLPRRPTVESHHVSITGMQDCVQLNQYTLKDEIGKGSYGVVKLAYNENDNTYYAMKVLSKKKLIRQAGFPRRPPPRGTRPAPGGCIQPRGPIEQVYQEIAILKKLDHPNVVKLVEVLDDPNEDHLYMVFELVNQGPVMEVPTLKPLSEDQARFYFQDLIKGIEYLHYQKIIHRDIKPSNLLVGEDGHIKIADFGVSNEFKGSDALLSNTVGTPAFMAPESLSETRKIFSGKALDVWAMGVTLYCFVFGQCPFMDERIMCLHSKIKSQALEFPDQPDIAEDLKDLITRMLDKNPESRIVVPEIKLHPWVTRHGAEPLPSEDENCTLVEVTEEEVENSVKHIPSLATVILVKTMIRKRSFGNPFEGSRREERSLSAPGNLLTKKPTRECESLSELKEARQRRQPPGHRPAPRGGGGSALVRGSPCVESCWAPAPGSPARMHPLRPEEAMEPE
Experiment: radiometric filter-binding kinase assay
Conditions: compound 1.0 µM
measured.parameter: residual activity (%)

Form field residual activity, entry NC(=O)c1c(NC(=O)C2CC2)sc2c1CCCC2 : 106

I. NC(=O)c1cc2c(-c3cccc(-c4ccccc4)c3)cnc(N)c2s1
II. O=C(O)c1cc(N=Nc2ccc(S(=O)(=O)Nc3ccccn3)cc2)ccc1O
III. O=C(NCCCNc1nc(Nc2cccc(CN3CCOCC3)c2)ncc1C1CC1)C1CCC1
Sort the 3 compounds by residual activity; largest first, smallest last. State the ranking by listing the labels in the requested order.
II, I, III

P. O=C(Nc1cccnc1)c1cc(-c2ccnc(F)c2)ccc1OCc1ccccc1
Q. COc1cc2ncn(-c3cc(OCc4ccccc4S(C)(=O)=O)c(C#N)s3)c2cc1OC
Of the two listed items, which has the higher residual activity? First: P Second: Q Give the label of your selection.
Q

P. Cc1cc(NC(=O)c2cccc(NC(=O)/C=C/CN(C)C)c2)ccc1Nc1nccc(-c2cccnc2)n1
Q. O=C1Nc2nc(-c3c(O)cccc3OCC3CC3)cc(C3CCCNC3)c2CO1 (stereo not given)
R. NC(=O)Nc1ccc2c(c1)/C(=C/c1cc(-c3cccnc3)c[nH]1)C(=O)N2
S. O=C(O)c1ccc(-c2c[nH]c3ncc(-c4ccccc4)cc23)cc1C1CCCC1
Sort the 4 compounds by residual activity; largest first, smallest last. State the ranking by listing the labels in the requested order.
Q, P, R, S

###

Target: MARK1 (human) (UniProt Q9P0L2)
Sequence (Q9P0L2 whole entry, looked up): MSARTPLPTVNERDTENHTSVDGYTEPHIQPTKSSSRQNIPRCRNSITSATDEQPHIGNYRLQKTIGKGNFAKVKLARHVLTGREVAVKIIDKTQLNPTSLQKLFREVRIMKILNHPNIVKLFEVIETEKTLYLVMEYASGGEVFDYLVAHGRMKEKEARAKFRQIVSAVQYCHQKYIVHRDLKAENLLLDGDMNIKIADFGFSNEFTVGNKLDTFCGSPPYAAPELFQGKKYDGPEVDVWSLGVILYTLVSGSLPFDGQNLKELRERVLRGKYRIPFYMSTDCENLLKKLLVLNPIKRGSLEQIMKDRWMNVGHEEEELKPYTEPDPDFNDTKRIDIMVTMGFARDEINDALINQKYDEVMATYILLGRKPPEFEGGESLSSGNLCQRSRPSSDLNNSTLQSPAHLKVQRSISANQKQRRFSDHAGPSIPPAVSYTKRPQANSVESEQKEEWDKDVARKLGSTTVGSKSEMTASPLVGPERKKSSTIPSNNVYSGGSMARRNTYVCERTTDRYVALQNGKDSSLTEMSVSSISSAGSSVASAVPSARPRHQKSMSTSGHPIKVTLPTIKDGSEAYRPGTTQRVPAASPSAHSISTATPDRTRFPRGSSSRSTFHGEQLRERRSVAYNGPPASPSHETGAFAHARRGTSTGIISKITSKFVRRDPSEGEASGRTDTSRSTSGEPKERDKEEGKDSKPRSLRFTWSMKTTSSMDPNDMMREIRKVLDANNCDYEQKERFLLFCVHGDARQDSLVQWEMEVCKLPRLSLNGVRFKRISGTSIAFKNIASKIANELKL
Test: radiometric filter-binding kinase assay
Settings: compound 0.01 µM
measured.parameter: residual activity (%)

Form field residual activity, entry COc1ccc(N(C(=O)Nc2c(C)cccc2C)c2cc(Nc3ccc(N4CCN(C)CC4)cc3)ncn2)c(OC)c1 : 88

I. COc1cc(O)c2c(c1)[C@H]1OC1C[C@H](O)[C@H](O)C(=O)/C=C\C[C@H](C)OC2=O (some centres undefined)
II. CNC(=O)C1[C@H]2O[C@@](C)([C@@H]1N)n1c3ccccc3c3c4c(c5c6ccccc6n2c5c31)C(=O)NC4 (some centres undefined)
Hey, which is lower on measured residual activity, I or II ? Give the label of your selection.
II

###

Molecular target: RPS6KA3 KD1 KD2 (human) (UniProt P51812)
Sequence (P51812 whole entry, looked up): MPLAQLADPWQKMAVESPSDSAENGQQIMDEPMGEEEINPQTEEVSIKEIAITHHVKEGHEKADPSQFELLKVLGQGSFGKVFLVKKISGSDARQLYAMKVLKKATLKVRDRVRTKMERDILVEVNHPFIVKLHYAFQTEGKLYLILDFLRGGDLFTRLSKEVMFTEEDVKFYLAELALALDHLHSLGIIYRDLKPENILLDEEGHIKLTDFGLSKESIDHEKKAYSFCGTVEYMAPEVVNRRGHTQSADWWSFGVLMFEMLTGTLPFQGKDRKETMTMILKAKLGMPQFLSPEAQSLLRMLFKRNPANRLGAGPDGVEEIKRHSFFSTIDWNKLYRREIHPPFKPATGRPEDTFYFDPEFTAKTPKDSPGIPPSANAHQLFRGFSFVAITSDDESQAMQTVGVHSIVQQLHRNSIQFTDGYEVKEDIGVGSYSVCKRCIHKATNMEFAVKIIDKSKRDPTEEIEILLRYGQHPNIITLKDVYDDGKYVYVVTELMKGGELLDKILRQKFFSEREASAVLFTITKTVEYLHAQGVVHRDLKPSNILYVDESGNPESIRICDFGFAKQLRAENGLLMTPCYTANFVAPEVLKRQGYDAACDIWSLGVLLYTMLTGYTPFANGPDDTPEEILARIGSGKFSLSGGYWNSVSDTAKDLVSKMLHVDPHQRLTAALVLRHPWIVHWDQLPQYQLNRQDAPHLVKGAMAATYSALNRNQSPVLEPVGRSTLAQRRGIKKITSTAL
Assay: radiometric filter-binding kinase assay
Conditions: compound 10.0 µM
measured.parameter: residual activity (%)

Form field residual activity, entry NC1(c2ccc(-c3nc4ccn5c(=O)[nH]nc5c4cc3-c3ccccc3)cc2)CCC1 : 81

1. CC1=C(CO)C(=O)O[C@@H]([C@@H](C)[C@H]2CC[C@H]3[C@@H]4C[C@H]5O[C@]56[C@@H](O)C=CC(=O)[C@]6(C)C4CC[C@]23C)C1 (stereo not given in full)
2. NC(=O)c1ccc(-c2ccc(Oc3cncc4sc(-c5nn[nH]n5)cc34)cc2)cc1
Hey, which is lower on measured residual activity, 1 or 2 ? Give the label of your selection.
2

P. Cc1cccc(Nc2nn(C)c3ncnc(N)c23)c1
Q. NC(=O)Nc1ccc2c(c1)/C(=C/c1cc(-c3cccnc3)c[nH]1)C(=O)N2
Hey, which is lower on measured residual activity, P or Q ? Give the label of your selection.
Q
(Q: 22%, P: 99%)

a. Cc1nc(-c2ccc(OCC(C)C)c(C#N)c2)sc1C(=O)O
b. COc1ccc2c(c1)c1c3c(c4c5ccccc5n(C)c4c1n2CC(O)CN(C)C)C(=O)NC3=O (stereo not given)
c. O=C(Nc1ccccc1-c1cn2c(CN3CCNCC3)csc2n1)c1cnc2ccccc2n1
Sort the 3 compounds by residual activity; largest first, smallest last. State the ranking by listing the labels in the requested order.
a, c, b

I. CCOC(=O)c1ccc(N2NC(=O)/C(=C/c3ccc([N+](=O)[O-])o3)C2=O)cc1
II. NC(=O)c1cc(-c2ccnc(NC3CCCCC3)c2)nc(N2CCNCC2)c1
Hey, which is lower on measured residual activity, I or II ? Give the label of your selection.
I
(I: 37%, II: 81%)
